Numbers sourced from ChEMBL document CHEMBL3045560.

- target.or.test.system: Gamma-aminobutyric acid receptor subunit alpha-6/beta-3 (Homo sapiens, UniProt P28472+Q16445)
- Sequence (P28472 whole entry): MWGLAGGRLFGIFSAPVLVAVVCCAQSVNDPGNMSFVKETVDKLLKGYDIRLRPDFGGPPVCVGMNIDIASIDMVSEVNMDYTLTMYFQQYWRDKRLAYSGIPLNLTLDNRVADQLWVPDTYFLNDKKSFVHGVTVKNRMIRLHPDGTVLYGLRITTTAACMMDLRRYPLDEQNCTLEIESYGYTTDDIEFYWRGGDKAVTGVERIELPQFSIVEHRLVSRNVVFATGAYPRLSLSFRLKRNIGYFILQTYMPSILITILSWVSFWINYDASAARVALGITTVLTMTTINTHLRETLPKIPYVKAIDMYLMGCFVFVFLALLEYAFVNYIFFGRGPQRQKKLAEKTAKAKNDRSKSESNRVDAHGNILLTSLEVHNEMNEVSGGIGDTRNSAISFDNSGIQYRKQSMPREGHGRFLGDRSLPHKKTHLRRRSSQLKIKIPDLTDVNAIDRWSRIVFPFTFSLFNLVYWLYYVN
- Sequence (Q16445 whole entry): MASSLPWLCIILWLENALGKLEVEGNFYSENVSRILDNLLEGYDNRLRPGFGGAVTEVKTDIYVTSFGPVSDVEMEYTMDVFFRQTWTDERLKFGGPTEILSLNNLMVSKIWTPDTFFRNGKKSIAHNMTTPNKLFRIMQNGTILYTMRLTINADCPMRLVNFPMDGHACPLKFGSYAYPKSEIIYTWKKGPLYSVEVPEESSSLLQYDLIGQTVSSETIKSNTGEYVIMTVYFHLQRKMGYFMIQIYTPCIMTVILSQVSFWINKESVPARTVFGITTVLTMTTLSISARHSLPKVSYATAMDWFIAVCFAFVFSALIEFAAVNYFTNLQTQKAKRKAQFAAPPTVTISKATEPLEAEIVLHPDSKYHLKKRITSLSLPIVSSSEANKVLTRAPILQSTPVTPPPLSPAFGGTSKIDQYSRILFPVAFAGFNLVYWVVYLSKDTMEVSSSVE
- test.summary: Displacement of [3H]EBOB from recombinant Homo sapiens (human) GABA alpha6beta3 receptor
Reported IC50 values are given for each entry in this list.
Answer shape: numeric part, then the unit.

Example cases with answers are listed next.
molecule	endpoint.label	readout.value
N#Cc1nn(-c2c(Cl)cc(C(F)(F)F)cc2Cl)c(N)c1[S+]([O-])C(F)(F)F (stereo not drawn)	IC50	3.1 nM
Cl[C@H]1[C@H](Cl)[C@@H](Cl)[C@@H](Cl)[C@H](Cl)[C@H]1Cl	IC50	1.3 nM

Attention now turns to another entry.
Exercise: Quick one: IC50 for O=S1OC[C@@H]2[C@H](CO1)[C@@]1(Cl)C(Cl)=C(Cl)[C@]2(Cl)C1(Cl)Cl (stereo partly drawn) [ALPHA-ENDOSULFAN] ?
Solution: 4 nM

----------
- target.or.test.system: GABA-A receptor; alpha-6/beta-3/gamma-2 (Homo sapiens, UniProt P18507+P28472+Q16445)
- Sequence (P18507 whole entry): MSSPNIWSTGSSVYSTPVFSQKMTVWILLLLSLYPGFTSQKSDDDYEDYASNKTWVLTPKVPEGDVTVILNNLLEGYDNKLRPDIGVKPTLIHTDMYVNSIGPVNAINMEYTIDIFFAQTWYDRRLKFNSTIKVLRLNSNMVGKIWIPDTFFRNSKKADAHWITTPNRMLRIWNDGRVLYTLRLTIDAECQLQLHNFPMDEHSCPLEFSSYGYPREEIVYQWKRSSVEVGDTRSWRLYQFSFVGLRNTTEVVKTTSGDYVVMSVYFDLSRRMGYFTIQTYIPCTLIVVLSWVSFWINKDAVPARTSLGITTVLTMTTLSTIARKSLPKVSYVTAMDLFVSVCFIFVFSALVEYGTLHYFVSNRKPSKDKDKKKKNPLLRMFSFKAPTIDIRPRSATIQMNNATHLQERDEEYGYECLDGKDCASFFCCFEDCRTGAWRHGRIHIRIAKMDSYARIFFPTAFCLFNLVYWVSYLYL
- Sequence (P28472 whole entry): as the sequence (P28472 whole entry) above
- Sequence (Q16445 whole entry): as the sequence (Q16445 whole entry) above
- test.summary: Displacement of [3H]EBOB from recombinant Homo sapiens (human) GABA alpha6beta3gamma2 receptor
endpoint.label: IC50 (nM)
Respond numerically; units are nM and should not be typed.

Below are worked cases with known answers.
compound	units.of.measure	IC50
N#Cc1nn(-c2c(Cl)cc(C(F)(F)F)cc2Cl)c(N)c1[S+]([O-])C(F)(F)F (stereo not drawn)	nM	17
O=S1OC[C@@H]2[C@H](CO1)[C@@]1(Cl)C(Cl)=C(Cl)[C@]2(Cl)C1(Cl)Cl (stereo partly drawn) [ALPHA-ENDOSULFAN]	nM	4.6

Would you kindly look at the next entry?
Exercise: Enter reported IC50 observed with GABA-A receptor; alpha-6/beta-3/gamma-2 (Homo sapiens, UniProt P18507+P28472+Q16445) for Cl[C@H]1[C@H](Cl)[C@@H](Cl)[C@@H](Cl)[C@H](Cl)[C@H]1Cl
Solution: 4.9
